# System: HSkMC (human skeletal muscle cells)
# Measurement Protocol: cytotoxicity call (relative viability < 0.9)
# Details: 10 µM
Hit rate of the full screen: of about 39,000 compounds, about 1,500 (3.8%) were called active. The sample as a whole holds a higher share of actives than the screen did.
Possible outcomes: t (active), f (inactive)

1. Cc1ccc(S(=O)(=O)N(C)C[C@@H]2OCCCC[C@H](C)Oc3ccc(NC(=O)Nc4ccc(F)cc4)cc3C(=O)N([C@@H](C)CO)C[C@@H]2C)cc1	f
2. COc1ccc(S(=O)(=O)N(C)C[C@H]2OCCCC[C@H](C)Oc3ccc(NS(=O)(=O)c4cn(C)cn4)cc3C(=O)N([C@@H](C)CO)C[C@H]2C)cc1	t
3. C[C@@H]1CN([C@@H](C)CO)C(=O)c2cc(NC(=O)Nc3ccccc3)ccc2O[C@@H](C)CCCCO[C@H]1CN(C)S(=O)(=O)c1ccc(C(F)(F)F)cc1	f
4. COc1ccc(S(=O)(=O)Nc2ccc3c(c2)C(=O)N([C@H](C)CO)C[C@H](C)[C@@H](CN(C)C(=O)Nc2ccccc2)OCCCC[C@@H](C)O3)cc1	f
5. Cc1cn(-c2cc(NC(=O)c3ccc(C)c(Nc4nccc(-c5cnccn5)n4)c3)cc(C(F)(F)F)c2)cn1	t
6. COc1ccc(NC(=O)N(C)C[C@H]2OCCCC[C@H](C)Oc3ccc(NC(=O)Nc4ccc(C(F)(F)F)cc4)cc3C(=O)N([C@@H](C)CO)C[C@@H]2C)cc1	f
7. CC(C)c1ccccc1Cc1cc(C(=O)Nc2ccc(S(=O)(=O)c3ccccc3C(C)(C)C)cc2)c(O)c(O)c1O	t
8. CCc1cccc(C(C)C)c1NC(=O)Nc1ccccc1	f
9. CO[C@@H]1CN(C)C(=O)c2ccc(NS(=O)(=O)c3cn(C)cn3)cc2OC[C@H](C)N(Cc2cccc(F)c2)C[C@@H]1C	f
10. Cc1ccc(S(=O)(=O)N(C)C[C@@H]2OCCCC[C@@H](C)Oc3ccc(NS(=O)(=O)c4ccc(F)cc4)cc3C(=O)N([C@H](C)CO)C[C@H]2C)cc1	t
11. COc1ccc(CN(C)C[C@H]2Oc3ccc(NC(=O)CCN4CCOCC4)cc3CC(=O)N([C@@H](C)CO)C[C@@H]2C)cc1	f
12. C[C@H]1CN([C@@H](C)CO)C(=O)c2cc(NC(=O)Nc3ccc(C(F)(F)F)cc3)ccc2O[C@H]1CN(C)Cc1ccc(-c2ccccc2)cc1	t
13. Cc1ccc(S(=O)(=O)N(C)C[C@H]2OCCCC[C@@H](C)Oc3ccc(NC(=O)Nc4ccc(F)cc4)cc3C(=O)N([C@@H](C)CO)C[C@H]2C)cc1	f
14. Cc1oc(C(C)(C)C)cc1C(=O)Nc1ccc(C(C)C)cc1	f
15. Cc1ccc(S(=O)(=O)Nc2ccc3c(c2)C(=O)N([C@H](C)CO)C[C@H](C)[C@@H](CN(C)S(=O)(=O)c2ccc(F)cc2)OCCCC[C@H](C)O3)cc1	t
16. Cc1ccc(S(=O)(=O)Nc2ccc3c(c2)C(=O)N([C@H](C)CO)C[C@H](C)[C@H](CN(C)S(=O)(=O)c2ccc(F)cc2)OCCCC[C@H](C)O3)cc1	f
17. C[C@@H]1CN([C@@H](C)CO)C(=O)c2cc(NC(=O)Nc3ccc(C(F)(F)F)cc3)ccc2O[C@@H]1CN(C)Cc1ccc(-c2ccccc2)cc1	t
18. Cc1ccc(S(=O)(=O)Nc2ccc3c(c2)C(=O)N([C@H](C)CO)C[C@@H](C)[C@@H](CN(C)S(C)(=O)=O)O3)cc1	f
19. CO[C@H]1CN(C)C(=O)c2cc(NC(=O)Nc3ccc(Cl)cc3)ccc2OC[C@@H](C)N(C(=O)Nc2c(C)noc2C)C[C@H]1C	f
20. NCC[C@@H]1CC[C@@H](NC(=O)c2ccccc2F)[C@@H](CO)O1	f
21. CCCNC(=O)N1C[C@H](O)COC[C@@H]2O[C@@H](CC(=O)NCc3ccncn3)CC[C@H]21	f
22. C[C@@H]1CN([C@@H](C)CO)C(=O)c2cc(N(C)C)ccc2O[C@@H](C)CCCCO[C@@H]1CN(C)C(=O)CCCN(C)C	f
